- System: T. b. brucei 427 bloodstream forms
- Protocol: Resazurin-based T. b. brucei assay
- Format: cell-based
- Details: Trypanosoma brucei, 72 h, read-out: EC50 T. brucei
Give pEC50 for every item shown.
// pEC50 is dimensionless: -log10 of concentration (M)

Input: Complete the entry with pEC50 for C/C1=C\[C@H](C)CCC(=O)/C(C)=C/[C@H](C)C[C@@H](C)CC[C@@H]([C@@H](C)C(=O)O)OC(=O)[C@@H](C)C1 [Strasseriolide A, strasseriolide A]
Output: 3.56

Input: Complete the entry with pEC50 for C/C1=C\[C@H](C)CC[C@@H](O)/C(C)=C/[C@H](C)C[C@@H](C)CC[C@@H]([C@@H](C)C(=O)O)OC(=O)[C@@H](C)C1 [Strasseriolide B, strasseriolide B]
Output: 4.57

Input: Complete the entry with pEC50 for C/C1=C\[C@H](C)C(=O)C[C@@H](O)/C(C)=C/[C@H](C)C[C@@H](C)CC[C@@H]([C@@H](C)C(=O)O)OC(=O)[C@@H](C)C1 [Strasseriolide C, strasseriolide C]
Output: 4.22
